- Method Description: Kinetic solubility of the compound in fixanal buffer at pH 7.4 at 200 uM
- Format: physicochemical
- Assay Setup: read-out: Kinetic_solubility
Below is a list of entries, each paired with its recorded solubility kinetic at 200 µM value.

Given Smiles | Value Relation Sign | solubility kinetic at 200 µM [µM]
COc1ccc2c(=O)c(C)c(-c3cncc(-c4ccc(OC(F)(F)F)cc4)c3)[nH]c2c1 | < | 1
COc1ccc2c(=O)c(C)c(-c3ccc(-c4ccc(OC(F)(F)F)cc4)nc3)[nH]c2c1 | < | 1
Cc1c(-c2cncc(-c3ccc(OC(F)(F)F)cc3)c2)[nH]c2ccccc2c1=O | = | 3.6
Cc1c(-c2ccnc(-c3ccc(OC(F)(F)F)cc3)c2)[nH]c2ccccc2c1=O | = | 2.1
Cc1c(-c2ccc(-c3ccc(OC(F)(F)F)cc3)nc2)[nH]c2ccccc2c1=O | < | 1
COc1ccc2c(=O)c(C)c(-c3cncc(-c4ccc(Cl)c(Cl)c4)c3)[nH]c2c1 | = | 14
COc1ccc2c(=O)c(C)c(-c3ccnc(-c4ccc(OC(F)(F)F)cc4)c3)[nH]c2c1 | < | 1

====

- Test system: Plasmodium falciparum
- Method Description: Antimalarial activity against drug resistant Plasmodium falciparum W2 infected in human erythrocytes assessed as growth inhibition after 48 hrs by SYBR Green 1 staining-based fluorescence assay
- Type: functional, organism-based
- Assay Setup: W2, 48 h
Entries and their measured IC50 follow.
Recorded Endpoint: IC50 (nM)

Given Smiles | Measurement
O=C1C(O)=C([C@H]2CC[C@H](c3ccc(Cl)cc3)CC2)C(=O)c2ccccc21 | 0.3
COc1ccc2c(=O)c(C)c(-c3ccnc(-c4ccc(OC(F)(F)F)cc4)c3)[nH]c2c1 | 4.2
COc1ccc2c(=O)c(C)c(-c3cncc(-c4ccc(OC(F)(F)F)cc4)c3)[nH]c2c1 | 4
Cc1c(-c2ccc(-c3ccc(OC(F)(F)F)cc3)nc2)[nH]c2ccccc2c1=O | 48

====

- Test system: cytochrome b-c1 complex
- Method Description: Inhibition of cytochrome b-c1 complex bovine heart mitochondrial membranes assessed as reduction in cytochrome c reductase activity using decylubiquinol as substrate at 1 uM by UV-visible spectrophotometric analysis
- Design: species or system Bos taurus
- Assay Setup: cattle, probe decylubiquinol
true means recorded inhibition at 1 µM is 80% or above; false means it is below 80%.

Given Smiles | Target Entity | Class
Cc1c(-c2cncc(-c3ccc(OC(F)(F)F)cc3)c2)[nH]c2ccccc2c1=O | cytochrome b-c1 complex | false
COc1ccc2c(=O)c(C)c(-c3ccc(-c4ccc(OC(F)(F)F)cc4)nc3)[nH]c2c1 | cytochrome b-c1 complex | true
COc1ccc2c(=O)c(C)c(-c3ccnc(-c4ccc(OC(F)(F)F)cc4)c3)[nH]c2c1 | cytochrome b-c1 complex | true
COc1ccc2c(=O)c(C)c(-c3cncc(-c4ccc(Cl)c(Cl)c4)c3)[nH]c2c1 | cytochrome b-c1 complex | false

====

- System: cytochrome b-c1 complex
- Method Description: Inhibition of cytochrome b-c1 complex bovine heart mitochondrial membranes assessed as reduction in cytochrome c reductase activity using decylubiquinol as substrate at 100 uM by UV-visible spectrophotometric analysis
- Design: species or system Bos taurus
- Assay Setup: cattle, probe decylubiquinol

Given Smiles | inhibition at 100 µM
COc1ccc2c(=O)c(C)c(-c3cncc(-c4ccc(OC(F)(F)F)cc4)c3)[nH]c2c1 | 19%
COc1ccc2c(=O)c(C)c(-c3ccc(-c4ccc(OC(F)(F)F)cc4)nc3)[nH]c2c1 | 55%
COc1ccc2c(=O)c(C)c(-c3cncc(-c4ccc(Cl)c(Cl)c4)c3)[nH]c2c1 | 13%
Cc1c(-c2cncc(-c3ccc(OC(F)(F)F)cc3)c2)[nH]c2ccccc2c1=O | 20%
COc1ccc2c(=O)c(C)c(-c3ccnc(-c4ccc(OC(F)(F)F)cc4)c3)[nH]c2c1 | 63%
Cc1c(-c2ccnc(-c3ccc(OC(F)(F)F)cc3)c2)[nH]c2ccccc2c1=O | 52%

====

- Method Description: Intrinsic clearance in human liver microsomes at 3 uM assessed per mg of protein up to 45 mins in presence of NADPH by LC-MS/MS analysis
- Format: ADME
- Assay Setup: read-out: CLH
Reported microsomal CLint at 3 µM values for the following compounds.

Given Smiles | microsomal CLint at 3 µM, µL/min/mg
Cc1c(-c2ccnc(-c3ccc(OC(F)(F)F)cc3)c2)[nH]c2ccccc2c1=O | 7.7
Cc1c(-c2cncc(-c3ccc(Cl)c(Cl)c3)c2)[nH]c2ccccc2c1=O | 5.6
Cc1c(-c2ccc(-c3ccc(OC(F)(F)F)cc3)nc2)[nH]c2ccccc2c1=O | 20.6
COc1ccc2c(=O)c(C)c(-c3cncc(-c4ccc(OC(F)(F)F)cc4)c3)[nH]c2c1 | 25.9
Cc1c(-c2cncc(-c3ccc(OC(F)(F)F)cc3)c2)[nH]c2ccccc2c1=O | 12.5
COc1ccc2c(=O)c(C)c(-c3cncc(-c4ccc(Cl)c(Cl)c4)c3)[nH]c2c1 | 14
